# subjectOfTest: Bcl-2-like protein 1 (Homo sapiens, UniProt Q07817)
# Sequence (Q07817 whole entry): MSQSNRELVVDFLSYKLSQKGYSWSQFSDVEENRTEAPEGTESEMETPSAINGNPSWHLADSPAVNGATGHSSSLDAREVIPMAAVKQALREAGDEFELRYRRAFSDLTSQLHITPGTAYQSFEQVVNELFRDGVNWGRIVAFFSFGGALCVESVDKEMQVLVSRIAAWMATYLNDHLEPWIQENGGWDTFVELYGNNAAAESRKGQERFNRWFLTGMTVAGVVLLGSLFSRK
# assayDetails: Inhibition of biotin labelled Bid-BH3 binding to C-terminal GST-tagged human BCL-XL […] expressed in Escherichia coli BL21 (DE3) preincubated for 1 hr followed by followed by biotin labelled Bid-BH3 addition measured after 2 hrs by ELISA
readoutLabel: IC50

Look up and report measured IC50 for this entry: O=C(c1ccccc1O)c1[nH]c(Cl)c(Cl)c1-n1c(C(=O)c2ccccc2O)cc(Cl)c1Cl
> 80 µM

---

# subjectOfTest: Induced myeloid leukemia cell differentiation protein Mcl-1 (Homo sapiens, UniProt Q07820)
# Sequence (Q07820 whole entry, the tested form may be a part): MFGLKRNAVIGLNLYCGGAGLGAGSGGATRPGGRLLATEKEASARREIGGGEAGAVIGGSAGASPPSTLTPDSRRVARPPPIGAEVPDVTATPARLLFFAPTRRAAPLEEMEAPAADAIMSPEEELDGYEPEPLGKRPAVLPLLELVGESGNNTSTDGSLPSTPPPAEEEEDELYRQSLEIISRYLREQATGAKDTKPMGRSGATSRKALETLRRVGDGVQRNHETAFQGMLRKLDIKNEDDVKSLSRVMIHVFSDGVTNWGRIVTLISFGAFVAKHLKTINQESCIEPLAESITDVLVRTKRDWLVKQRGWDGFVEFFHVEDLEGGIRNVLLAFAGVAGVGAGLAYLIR
# assayDetails: Inhibition of N-terminal 26 residues truncated 5-FAM labelled Bid-BH3 binding to MCL1 (unknown origin) by fluorescence polarization assay
readoutLabel: pKi
# pKi = -log10(concentration in molar units)

{"compoundSmiles": "COc1cc(NC(=O)CCC(=O)N2CCN(Cc3cccc(-c4ccc(Cl)cc4)c3)CC2)cc(OC)c1OC", "pKi": 6.49}

Attention now shifts to the item below.
Look up and report measured pKi for this entry: COc1cc(CC(=O)NCc2ccc(C(=O)N3CCN(Cc4ccccc4-c4ccccc4)CC3)cc2)cc(OC)c1OC
6.74

---

# subjectOfTest: Induced myeloid leukemia cell differentiation protein Mcl-1 (Homo sapiens, UniProt Q07820)
# assayDetails: Inhibition of FITC-BAK binding to MCL1 (172 to 327 residues) (unknown origin) by fluorescence polarization assay
readoutLabel: Ki (nM)
# unit: nM | format: bare number

Give Ki; test system Induced myeloid leukemia cell differentiation protein Mcl-1 (Homo sapiens, UniProt Q07820); compound Cc1cc(Oc2ccc(C(=O)O)c(OCc3ccccc3)n2)cc(C)c1Cl
2900

---

# Test system: RS4-11
# assayDetails: Cytotoxicity against human RS4:11 cells assessed as reduction in cell viability after 72 hrs
# Format: functional, cell-based
# assayContext: RS4-11, 72 h
readoutLabel: pIC50
# pIC50 = -log10(concentration in molar units)

Look up and report measured pIC50 for this entry: O=C(c1ccccc1O)c1[nH]c(Cl)c(Cl)c1-n1c(C(=O)c2ccccc2O)cc(Cl)c1Cl
5.70

---

# subjectOfTest: Induced myeloid leukemia cell differentiation protein Mcl-1 (Homo sapiens, UniProt Q07820)
# assayDetails: Inhibition of FITC-BAK binding to His6 tagged MBP fused recombinant human MCL1 (172 to 327 residues) expressed in Escherichia coli by fluorescence polarization competition assay
readoutLabel: pKi
# pKi = -log10(concentration in molar units)

Look up and report measured pKi for this entry: Cc1cc(Oc2ccc(S(=O)(=O)N3CC(C(=O)O)Cc4ccccc43)cc2)cc(C)c1Cl (stereo unspecified)
6.92

---

# subjectOfTest: Induced myeloid leukemia cell differentiation protein Mcl-1 (Homo sapiens, UniProt Q07820)
# assayDetails: Inhibition of Mcl-1 (unknown origin) by TR-FRET assay
readoutLabel: Ki

Give Ki; test system Induced myeloid leukemia cell differentiation protein Mcl-1 (Homo sapiens, UniProt Q07820); compound CC1(C)CCC(CN2CCN(c3ccc(C(=O)NS(=O)(=O)c4ccc(NCC5CCOCC5)c([N+](=O)[O-])c4)c(Oc4cnc5[nH]ccc5c4)c3)CC2)=C(c2ccc(Cl)cc2)C1
> 444 nM

---

# assayDetails: Inhibition of recombinant FITC tagged Bid-BH3 binding to BCL-XL deltaC (unknown origin) expressed in Escherichia coli BL21 (DE3) by fluorescence polarization assay
# Parameters: species or system Homo sapiens
pIC50: −log10 of the molar value.
readoutLabel: pIC50

Look up and report measured pIC50 for this entry: Cc1cs/c(=N\C2CCCCC2)n1/N=C/c1ccc(O)c(O)c1O
< 4.30
